Species on record: Rattus norvegicus
Assay: Vasopressor activity in rat
Assay type: ADME, organism-based
Conditions: in vivo
*1 amine or outer side, *2 acyl side, *3 side chain or, on linkers, in order; H or OH if unused. Where a SMILES comes first, the peptide text is derived from it. Bridges are numbered along the chain shown (N, C = ends). X1 = O=C([C@H](O)CS[*:2])[*:1]
Quick list: Activity per entry.
Write down the numeric answer in U/mg and omit the unit.

Previously resolved entries follow.
COMPOUND | MEASUREMENT UNITS | Activity
CC[C@H](C)[C@@H]1NC(=O)[C@H](Cc2ccc(O)cc2)NC(=O)[C@H](O)CSSC[C@@H](C(=O)N2CCC[C@H]2C(=O)N[C@@H](CC(C)C)C(=O)NCC(N)=O)NC(=O)[C@H](CC(N)=O)NC(=O)[C@H](CCC(N)=O)NC1=O (YIQNCPLG-NH2; linker N-5 via X1) | U/mg | 14.7
CC[C@H](C)[C@@H]1NC(=O)[C@H](Cc2ccc(O)cc2)NC(=O)[C@@H](N)CSSC[C@@H](C(=O)N2CCC[C@H]2C(=O)N[C@@H](CC(C)C)C(=O)NCC(N)=O)NC(=O)[C@H](CC(N)=O)NC(=O)[C@H]([C@@H](C)O)NC1=O (H-CYITNCPLG-NH2; disulfide 1-6) | U/mg | 0.43
CC[C@H](C)[C@@H]1NC(=O)[C@H](Cc2ccc(O)cc2)NC(=O)[C@@H](N)CSSC[C@@H](C(=O)NCC(=O)N[C@@H](CC(C)C)C(=O)NCC(N)=O)NC(=O)[C@H](CC(N)=O)NC(=O)[C@H](CCC(N)=O)NC1=O (H-CYIQNCGLG-NH2; disulfide 1-6) | U/mg | 0.3

Any idea what its Activity is? The compound is `CC[C@H](C)[C@@H]1NC(=O)[C@H](Cc2ccc(O)cc2)NC(=O)[C@@H](N)CSSC[C@@H](C(=O)N2CCC[C@H]2C(=O)N[C@@H](CC(C)C)C(=O)NCC(N)=O)NC(=O)[C@H](CC(N)=O)NC(=O)[C@H](CCC(N)=O)NC1=O` 3.1

From: ChEMBL document CHEMBL3244090
